- METHOD: growth inhibition, single agents and combos, HD-MB03, cell-based, BGB or cisplatin IC20 combos, synergistic combos for chromothripsis tumors (AID 1671455);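 also: 0% = vehicle DMSO and 100% = high DMSO as cytotoxic control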
- CONDITIONS_USED: HD-MB03 medulloblastoma cells, measured here: combo with cisplatin at IC20, at 0.5 µM, stronger effect = higher value
Listed molecules paired with reported inhibition
Your answer should be a plain number; it is taken to be in %.

Reference set, count: 5
MOLECULE: CC1OC(CC(=O)O)CC2=C1C(=O)c1c(O)cccc1C2=O (stereo unspecified)
inhibition [%]: 99.8

MOLECULE: COc1nc(N)nc2c1ncn2[C@@H]1O[C@H](CO)[C@@H](O)[C@H]1O
inhibition [%]: -9.78

MOLECULE: C=C1C(=O)O[C@@H]2C=C(C)CCC=C(C)CC[C@@H]12
inhibition [%]: -16.5

MOLECULE: Cc1cn(C2CC(O)C(COP(=O)(O)OP(=O)(O)OP(=O)(O)O)O2)c(=O)[nH]c1=O (stereo unspecified)
inhibition [%]: 8

MOLECULE: CO[C@H]1/C=C/O[C@@]2(C)Oc3c(C)c(O)c4c(O)c(c5c(c4c3C2=O)=NC2(CCN(CC(C)C)CC2)N=5)NC(=O)/C(C)=C\C=C\[C@H](C)[C@H](O)[C@@H](C)[C@@H](O)[C@@H](C)[C@H](OC(C)=O)[C@@H]1C
inhibition [%]: 3.29

State, in one line, measured inhibition of `O=C1C(=Cc2cccnc2)C(=O)c2ccccc21`
-5.96

State, in one line, measured inhibition of CC1OC(n2cc(F)c(=O)[nH]c2=O)C(O)C1O (stereo unspecified)
-10.3

State, in one line, measured inhibition of `C[C@@H]1COCCN1c1cc(C2(S(C)(=O)=O)CC2)nc(-c2cccc3[nH]ccc23)n1`
91.1

State, in one line, measured inhibition of CC1CNC(=O)NC1=O (stereo unspecified)
16.9

State, in one line, measured inhibition of `Cn1cnc2[nH]c(=O)[nH]c(=O)c21`
-11.2

State, in one line, measured inhibition of CC1CN(c2c(F)c(N)c3c(=O)c(C(=O)O)cn(C4CC4)c3c2F)CC(C)N1 (stereo unspecified)
2.33
